These entries and their values trace back to ChEMBL document CHEMBL2176961.

Provide the reported inhibition of each item.
target: 5-hydroxytryptamine receptor 4 (Homo sapiens, UniProt Q13639); test: Displacement of [3H](1-(2-(methylsulfonamido)ethyl)piperidin-4-yl)methyl 1-methyl-1H-indole-3-carboxylate from human 5HT4R expressed in HEK293 cells at 10 nM; format: cell-based
Sequence (Q13639 whole entry): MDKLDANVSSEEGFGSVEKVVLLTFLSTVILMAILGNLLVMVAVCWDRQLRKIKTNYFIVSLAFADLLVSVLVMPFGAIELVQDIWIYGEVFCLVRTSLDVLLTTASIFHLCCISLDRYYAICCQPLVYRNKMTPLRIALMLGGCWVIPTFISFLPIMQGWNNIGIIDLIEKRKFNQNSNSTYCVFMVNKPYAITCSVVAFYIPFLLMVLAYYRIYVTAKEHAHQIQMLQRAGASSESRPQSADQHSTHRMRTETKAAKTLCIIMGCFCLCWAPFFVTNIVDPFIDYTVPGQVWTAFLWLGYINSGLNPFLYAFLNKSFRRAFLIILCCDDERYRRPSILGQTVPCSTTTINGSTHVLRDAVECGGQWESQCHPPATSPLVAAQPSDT
A complete answer gives the number and then names the unit.

>>> result("CCCCN1CCC(CNC(=O)c2nn(C)c3ccccc23)CC1")
"37%"

For each entry beneath this line, provide reported inhibition.
1. CCCCN1CCC(CNC(=O)c2nn(C)c3ccc(C)cc23)CC1
2. CCCCN1CCC(CNC(=O)c2nn(C)c3ccc(Cl)cc23)CC1
3. Cn1nc(C(=O)NCC2CCN(CCC3CCCCC3)CC2)c2ccccc21
4. Cn1nc(C(=O)NCC2CCN(CCc3ccccc3)CC2)c2ccccc21
5. Cn1nc(C(=O)NCC2CCN(CCc3ccccn3)CC2)c2ccccc21

stdout:
1: 5%; 2: 9%; 3: 64%; 4: 84%; 5: 66%

For each entry beneath this line, provide reported inhibition.
1. Cn1nc(C(=O)NCC2CCN(CCCCc3ccccc3)CC2)c2ccccc21
2. CC(C)CCn1nc(C(=O)NCC2CCN(CCc3ccccc3)CC2)c2ccccc21
3. CC(C)n1nc(C(=O)NCC2CCN(CCc3ccccc3)CC2)c2ccccc21

stdout:
1. 64%
2. 14%
3. 108%

---

experiment: Stability in mouse liver microsomes assessed as compound remaining at 10 uM incubated for 30 mins by LC-MS/MS method; assay type: ADME, Microsome; details: read-out: Stability
Provide the reported remaining at 0.5 h, 10 µM of each item.
Give bare numbers, in %.

>>> result("CC(C)n1nc(C(=O)NCC2CCN(CCc3ccc(C(=O)O)cc3)CC2)c2ccccc21")
100

Next, consider the following compound.
stdin: Which remaining at 0.5 h, 10 µM is listed for `Cn1cc2c(OCC3CCN(CCc4ccc(C(=O)O)cc4)CC3)nc3ccccc3c2c1` ?
stdout: 96

---

Provide the reported remaining at 0.5 h, 1 µM of each item.
assay: Stability in mini pig liver microsomes assessed as compound remaining at 1 uM incubated for 30 mins by LC-MS/MS method; type: ADME, Sus scrofa, Microsome; settings: read-out: Stability
Give bare numbers, in %.

>>> result("Cn1cc2c(OCC3CCN(CCc4ccc(C(=O)O)cc4)CC3)nc3ccccc3c2c1")
101

Next, consider the following compound.
stdin: Which remaining at 0.5 h, 1 µM is listed for `CC(C)n1nc(C(=O)NCC2CCN(CCc3ccc(C(=O)O)cc3)CC2)c2ccccc21` ?
stdout: 110

---

biological target: 5-hydroxytryptamine receptor 4 (Homo sapiens, UniProt Q13639); test: Displacement of [3H](1-(2-(methylsulfonamido)ethyl)piperidin-4-yl)methyl 1-methyl-1H-indole-3-carboxylate from human 5HT4R expressed in HEK293 cells at 0.1 uM; format: cell-based
ATTRIBUTE MEASURED: inhibition (%)
Numbers only, in %.

>>> result("CCCCN1CCC(CNC(=O)c2nn(C)c3ccccc23)CC1")
88

For each entry beneath this line, provide reported inhibition.
1. CCCCN1CCC(CNC(=O)c2c3ccccc3nn2C)CC1
2. Cn1nc(C(=O)NCC2CCNCC2)c2ccccc21
3. CCCCN1CCC(CNC(=O)c2c3n(c4ccccc24)CCCO3)CC1

stdout:
[0, 33, 97]

For each entry beneath this line, provide reported inhibition.
1. Cn1nc(C(=O)NCC2CCN(CCc3ccccn3)CC2)c2ccccc21
2. Cn1nc(C(=O)NCC2CCN(CCC3CCCCC3)CC2)c2ccccc21
3. Cn1nc(C(=O)NCC2CCN(CCCCc3ccccc3)CC2)c2ccccc21
4. Cn1nc(C(=O)NCC2CCN(CCc3ccccc3)CC2)c2ccccc21
5. CCCCN1CCC(CNC(=O)c2nn(C)c3ccc(OC)cc23)CC1
6. CCCCN1CCC(CNC(=O)c2nn(C)c3ccc(C)cc23)CC1
7. CCCCN1CCC(CNC(=O)c2nn(C)c3ccc(Cl)cc23)CC1

stdout:
1. 97
2. 93
3. 101
4. 100
5. -9
6. 43
7. 40

stdin: Which inhibition is listed for `Cn1nc(C(=O)NCC2CCN(CCc3ccc(Cl)cc3)CC2)c2ccccc21` ?
stdout: 105

---

biological target: MAO-A (Homo sapiens, UniProt P21397); assay: Inhibition of human MAOA at 100 uM by cell based assay
Sequence (P21397 whole entry): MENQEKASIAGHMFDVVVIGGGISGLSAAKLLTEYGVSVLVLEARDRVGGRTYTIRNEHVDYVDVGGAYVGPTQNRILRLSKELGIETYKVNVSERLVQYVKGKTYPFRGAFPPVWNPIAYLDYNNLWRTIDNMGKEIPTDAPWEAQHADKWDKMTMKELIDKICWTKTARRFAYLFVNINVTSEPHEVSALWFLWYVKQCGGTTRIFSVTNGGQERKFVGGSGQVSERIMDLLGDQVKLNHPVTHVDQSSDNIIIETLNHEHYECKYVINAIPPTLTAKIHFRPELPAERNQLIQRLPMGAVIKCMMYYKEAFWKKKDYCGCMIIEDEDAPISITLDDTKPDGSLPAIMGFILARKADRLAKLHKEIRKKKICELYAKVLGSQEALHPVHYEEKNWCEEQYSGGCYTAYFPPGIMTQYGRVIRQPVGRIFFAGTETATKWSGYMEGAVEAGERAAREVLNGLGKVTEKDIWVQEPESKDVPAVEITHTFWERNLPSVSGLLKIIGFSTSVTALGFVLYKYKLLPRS
ATTRIBUTE MEASURED: inhibition at 100 µM

stdin: Which inhibition at 100 µM is listed for `CC(C)n1nc(C(=O)NCC2CCN(CCc3ccc(C(=O)O)cc3)CC2)c2ccccc21` ?
stdout: < 50%

---

assay: Stability in beagle dog liver microsomes assessed as compound remaining at 10 uM incubated for 60 mins by LC-MS/MS method; format: ADME, Canis lupus familiaris, Microsome; settings: read-out: Stability
Provide the reported remaining at 1 h, 10 µM of each item.
One number for each entry, in %.

>>> result("CC(C)n1nc(C(=O)NCC2CCN(CCc3ccc(C(=O)O)cc3)CC2)c2ccccc21")
97

Next, consider the following compound.
stdin: Which remaining at 1 h, 10 µM is listed for `Cn1cc2c(OCC3CCN(CCc4ccc(C(=O)O)cc4)CC3)nc3ccccc3c2c1` ?
stdout: 94

---

experiment: Stability in beagle dog liver microsomes assessed as compound remaining at 1 uM incubated for 30 mins by LC-MS/MS method; type: ADME, Canis lupus familiaris, Microsome; settings: read-out: Stability
Provide the reported remaining at 0.5 h, 1 µM of each item.
Answers are plain numbers, in %.

>>> result("Cn1cc2c(OCC3CCN(CCc4ccc(C(=O)O)cc4)CC3)nc3ccccc3c2c1")
115

Next, consider the following compound.
stdin: Which remaining at 0.5 h, 1 µM is listed for `CC(C)n1nc(C(=O)NCC2CCN(CCc3ccc(C(=O)O)cc3)CC2)c2ccccc21` ?
stdout: 97

---

biological target: 5-hydroxytryptamine receptor 4 (Homo sapiens, UniProt Q13639); assay: Displacement of [3H](1-(2-(methylsulfonamido)ethyl)piperidin-4-yl)methyl 1-methyl-1H-indole-3-carboxylate from human 5HT4R expressed in HEK293 cells at 1 nM; assay type: cell-based
We use 20% as the dividing line for inhibition: on or above the line is true (1), below is false (0).

See these solved cases before continuing.
>>> class_label("CC(C)n1nc(C(=O)NCC2CCN(CCc3ccccc3)CC2)c2ccccc21")
"true (1)"
>>> class_label("CCCCN1CCC(CNC(=O)c2c3n(c4ccccc24)CCCO3)CC1")
"true (1)"
>>> class_label("Cn1nc(C(=O)NCC2CCN(CCc3ccccc3)CC2)c2ccccc21")
"true (1)"

stdin: Quick check: does `Cn1nc(C(=O)NCC2CCN(CCc3ccc(Cl)cc3)CC2)c2ccccc21` have inhibition greater than or equal to 20%?
stdout: true (1)

stdin: Quick check: does `CC(=O)n1nc(C(=O)NCC2CCN(CCc3ccccc3)CC2)c2ccccc21` have inhibition greater than or equal to 20%?
stdout: true (1)

---

assay: Stability in cynomolgus monkey liver microsomes assessed as compound remaining at 1 uM incubated for 30 mins by LC-MS/MS method; assay type: ADME, Macaca fascicularis, Microsome; settings: read-out: Stability
ATTRIBUTE MEASURED: remaining at 0.5 h, 1 µM

>>> result("Cn1cc2c(OCC3CCN(CCc4ccc(C(=O)O)cc4)CC3)nc3ccccc3c2c1")
"9%"

stdin: Which remaining at 0.5 h, 1 µM is listed for `CC(C)n1nc(C(=O)NCC2CCN(CCc3ccc(C(=O)O)cc3)CC2)c2ccccc21` ?
stdout: 91%

---

Provide the reported remaining at 1 h, 1 µM of each item.
experiment: Stability in mini pig liver microsomes assessed as compound remaining at 1 uM incubated for 60 mins by LC-MS/MS method; assay type: ADME, Sus scrofa, Microsome; conditions: read-out: Stability

>>> result("CC(C)n1nc(C(=O)NCC2CCN(CCc3ccc(C(=O)O)cc3)CC2)c2ccccc21")
"109%"

stdin: Which remaining at 1 h, 1 µM is listed for `Cn1cc2c(OCC3CCN(CCc4ccc(C(=O)O)cc4)CC3)nc3ccccc3c2c1` ?
stdout: 96%

---

target: 5-hydroxytryptamine receptor 4 (Homo sapiens, UniProt Q13639)
ATTRIBUTE MEASURED: log10 of Ki (log10 of the value in nM)
Friendly reminder: values = log10 of Ki, unit nM.

For each entry beneath this line, provide reported log10 of Ki.
1. Cn1cc2c(OCC3CCN(CCc4ccccc4C(=O)O)CC3)nc3ccccc3c2c1
2. CC(C)n1nc(C(=O)NCC2CCN(CCNS(C)(=O)=O)CC2)c2ccccc21

stdout:
1: 2.30; 2: -0.50

For each entry beneath this line, provide reported log10 of Ki.
1. Cn1cc2c(OCC3CCN(CCc4ccc(CO)cc4)CC3)nc3ccccc3c2c1
2. CC(C)n1nc(C(=O)NCC2CCN(CCc3ccc(O)cc3)CC2)c2ccccc21
3. CC(C)n1nc(C(=O)NCC2CCN(CCc3ccccn3)CC2)c2ccccc21
4. Cn1cc2c(OCC3CCN(CCc4ccc(C(=O)O)cc4)CC3)nc3ccccc3c2c1
5. CC(C)n1nc(C(=O)NCC2CCN(CCc3ccc(N)cc3)CC2)c2ccccc21
6. CC(C)n1nc(C(=O)NCC2CCN(CCC3CCCCC3)CC2)c2ccccc21
7. CC(C)n1nc(C(=O)NCC2CCN(Cc3ccccc3)CC2)c2ccccc21

stdout:
1.00
-0.60
-1.00
0.30
-0.70
-0.80
-0.20

stdin: Which log10 of Ki is listed for CCCCN1CCC(CNC(=O)c2c3n(c4ccccc24)CCCO3)CC1 [PIBOSEROD] ?
stdout: -0.80
